Target: T1, human claudin 6 (CLDN6) (human, UniProt P56747 1-220)
T1 construct: also called human CLDN6; hCLDN6
T1 sequence: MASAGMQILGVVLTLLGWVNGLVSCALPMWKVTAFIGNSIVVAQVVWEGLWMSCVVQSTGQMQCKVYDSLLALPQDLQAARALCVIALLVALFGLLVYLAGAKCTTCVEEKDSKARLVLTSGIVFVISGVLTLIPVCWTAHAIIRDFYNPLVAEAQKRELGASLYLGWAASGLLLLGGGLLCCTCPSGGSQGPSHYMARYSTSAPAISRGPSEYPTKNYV
Test: flow cytometry, HEK293T-human CLDN6 cells; ratio to chBG87P
Readout Type: Emax ratio to BG87P
Output: the number by itself.

What Emax ratio to BG87P value was documented for this binder, BG87P-z0 (antibody, V domains shown, Humanized, no back mutations; also called BG87P-20) VH: QVQLVQSGAEVKKPGASVKVSCKASGYTFTDYHINWVRQAPGQRLEWMGWIYPGSGYTKYNEKFKVRVTITRDTSASTAYMELSSLRSEDTAVYYCARSGIYHYVSSYYFDHWGKGTTVTVSS VL: DIQMTQSPSTLSASVGDRVTITCKASQDVGTAVAWYQQKPGKAPKLLIYWASTRHTGVPSRFSGSGSGTEFTLTISSLQPDDFATYYCQQYSSYTFGGGTKVEIK ?
0.5

Values from patent US20240301061A1
